Molecular target: MAP kinase-interacting serine/threonine-protein kinase 2 (Homo sapiens, UniProt Q9HBH9)
Assay: Inhibition of MNK2 (unknown origin) at 100 nM incubated for 60 mins by HTRF assay
Sequence (Q9HBH9 whole entry, looked up, the tested form may be a part): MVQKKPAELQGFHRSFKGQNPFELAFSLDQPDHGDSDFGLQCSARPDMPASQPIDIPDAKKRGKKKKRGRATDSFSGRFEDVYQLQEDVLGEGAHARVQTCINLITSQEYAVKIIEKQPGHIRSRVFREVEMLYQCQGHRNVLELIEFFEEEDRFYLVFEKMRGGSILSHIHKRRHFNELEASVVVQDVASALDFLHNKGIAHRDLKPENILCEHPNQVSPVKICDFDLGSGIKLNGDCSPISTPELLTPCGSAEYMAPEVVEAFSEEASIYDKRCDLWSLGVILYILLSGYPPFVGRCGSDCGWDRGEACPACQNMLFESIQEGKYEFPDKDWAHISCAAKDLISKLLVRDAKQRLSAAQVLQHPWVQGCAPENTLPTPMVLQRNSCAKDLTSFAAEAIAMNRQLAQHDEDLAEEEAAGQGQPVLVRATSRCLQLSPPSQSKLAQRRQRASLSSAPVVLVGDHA
Recorded inhibition by entry
Express it in %; write the number only.

The cases that follow already have their inhibition on record.
Cc1cc(Nc2cn(C)nc2C(F)F)c(=O)n2c1C(=O)NC21CCCCC1	14.6
Cc1cc(Nc2cccnc2)c(=O)n2c1C(=O)NC21CCCCC1	13.3
Cc1cc(Nc2nccc(N)n2)c(=O)n2c1C(=O)NC21CCCCC1	30.2

What reported inhibition corresponds to Cc1cc(Nc2ccccn2)c(=O)n2c1C(=O)NC21CCCCC1 on MAP kinase-interacting serine/threonine-protein kinase 2 (Homo sapiens, UniProt Q9HBH9)?
16.2

What reported inhibition corresponds to Cc1cc(Nc2cn(C)nc2N)c(=O)n2c1C(=O)NC21CCCCC1 on MAP kinase-interacting serine/threonine-protein kinase 2 (Homo sapiens, UniProt Q9HBH9)?
55.4

What reported inhibition corresponds to Cc1cc(Nc2cc(N3CCN(CCCN(C)C)CC3)ncn2)c(=O)n2c1C(=O)NC21CCCCC1 on MAP kinase-interacting serine/threonine-protein kinase 2 (Homo sapiens, UniProt Q9HBH9)?
91.2

What reported inhibition corresponds to Cc1cc(Nc2cn(C)nc2C#N)c(=O)n2c1C(=O)NC21CCCCC1 on MAP kinase-interacting serine/threonine-protein kinase 2 (Homo sapiens, UniProt Q9HBH9)?
11.9

---

Target: MAP kinase-interacting serine/threonine-protein kinase 2 (Homo sapiens, UniProt Q9HBH9)
Assay: Inhibition of recombinant human N-terminal GST-tagged MNK2 (1 to 465 residues) expressed in baculovirus expression system using TATKSGSTTKNR as substrate preincubated for 10 mins followed by ATP addition and measured after 40 mins by luminescence based assay
Sequence (Q9HBH9 whole entry, the tested form may be a part): as the sequence (Q9HBH9 whole entry, looked up, the tested form may be a part) above
Recorded IC50 by entry
Express it in nM; write the number only.

What reported IC50 corresponds to Cc1cc(Nc2cc(N3CCN(C)CC3)ncn2)c(=O)n2c1C(=O)NC21CCCCC1 on MAP kinase-interacting serine/threonine-protein kinase 2 (Homo sapiens, UniProt Q9HBH9)?
42.1

What reported IC50 corresponds to Cc1cc(Nc2cc(N3CCCCC3)ncn2)c(=O)n2c1C(=O)NC21CCCCC1 on MAP kinase-interacting serine/threonine-protein kinase 2 (Homo sapiens, UniProt Q9HBH9)?
452

What reported IC50 corresponds to Cc1cc(Nc2ccncc2)c(=O)n2c1C(=O)NC21CCCCC1 on MAP kinase-interacting serine/threonine-protein kinase 2 (Homo sapiens, UniProt Q9HBH9)?
138

What reported IC50 corresponds to Cc1cc(Nc2ccnnc2)c(=O)n2c1C(=O)NC21CCCCC1 on MAP kinase-interacting serine/threonine-protein kinase 2 (Homo sapiens, UniProt Q9HBH9)?
162

What reported IC50 corresponds to Cc1cc(Nc2cc(N3CCN(CCN(C)C)CC3)ncn2)c(=O)n2c1C(=O)NC21CCCCC1 on MAP kinase-interacting serine/threonine-protein kinase 2 (Homo sapiens, UniProt Q9HBH9)?
7.5

What reported IC50 corresponds to Cc1cc(Nc2cn(C)nc2N)c(=O)n2c1C(=O)NC21CCCCC1 on MAP kinase-interacting serine/threonine-protein kinase 2 (Homo sapiens, UniProt Q9HBH9)?
389

---

Biological target: MAP kinase-interacting serine/threonine-protein kinase 1 (Homo sapiens, UniProt Q9BUB5)
Test: Inhibition of recombinant human N-terminal DYKDDDDK-tagged MNK1(1 to 424 residues) expressed in baculovirus expression system using TATKSGSTTKNR as substrate preincubated for 10 mins followed by ATP addition and measured after 40 mins by luminescence based assay
Sequence (Q9BUB5 whole entry, the tested form may be a part): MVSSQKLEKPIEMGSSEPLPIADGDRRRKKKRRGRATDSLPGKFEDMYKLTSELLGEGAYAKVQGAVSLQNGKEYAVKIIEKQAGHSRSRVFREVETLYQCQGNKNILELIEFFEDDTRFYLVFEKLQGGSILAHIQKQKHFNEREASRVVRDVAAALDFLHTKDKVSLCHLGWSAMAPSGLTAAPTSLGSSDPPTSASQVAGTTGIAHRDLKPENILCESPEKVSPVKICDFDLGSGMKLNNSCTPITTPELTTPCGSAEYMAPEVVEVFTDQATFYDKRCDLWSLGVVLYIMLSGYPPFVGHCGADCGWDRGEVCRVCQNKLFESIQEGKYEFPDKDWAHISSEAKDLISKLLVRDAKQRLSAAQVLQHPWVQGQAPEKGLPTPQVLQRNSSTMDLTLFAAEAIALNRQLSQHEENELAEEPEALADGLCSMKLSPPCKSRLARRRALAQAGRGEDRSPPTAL
MEASURED PARAMETER: pIC50
When answering, recall that pIC50 equals minus log10 of the concentration in mol/L, and write that number alone.

The cases that follow already have their pIC50 on record.
CC(=O)N1CCN(c2cc(Nc3cc(C)c4n(c3=O)C3(CCCCC3)NC4=O)ncn2)CC1	7.16
Cc1cc(Nc2ccnnc2)c(=O)n2c1C(=O)NC21CCCCC1	6.80
Cc1cc(Nc2ccncc2)c(=O)n2c1C(=O)NC21CCCCC1	6.62
Cc1cc(Nc2cc(N3CCNCC3)ncn2)c(=O)n2c1C(=O)NC21CCCCC1	7.68
Cc1cc(Nc2cc(N3CCCCC3)ncn2)c(=O)n2c1C(=O)NC21CCCCC1	6.32

Entry Cc1cc(Nc2ccncn2)c(=O)n2c1C(=O)NC21CCCCC1 : reported pIC50 = ?
7.98

Entry Cc1cc(Nc2cnccn2)c(=O)n2c1C(=O)NC21CCCCC1 : reported pIC50 = ?
6.33

---

Target: MAP kinase-interacting serine/threonine-protein kinase 1 (Homo sapiens, UniProt Q9BUB5)
Assay: Inhibition of MNK1 (unknown origin) at 100 nM incubated for 60 mins by HTRF assay
Sequence (Q9BUB5 whole entry, looked up, the tested form may be a part): as the sequence (Q9BUB5 whole entry, the tested form may be a part) above
Answer n if inhibition is under 60%, and y if it is 60% or more.

Please review the entries below; each comes with its answer.
Cc1cc(Nc2ccnc(N)c2)c(=O)n2c1C(=O)NC21CCCCC1	y
Cc1cc(Nc2cccnn2)c(=O)n2c1C(=O)NC21CCCCC1	n
Cc1cc(Nc2cnccn2)c(=O)n2c1C(=O)NC21CCCCC1	n

Next up:
Record Cc1cc(Nc2cc(N3CCN(CCCN(C)C)CC3)ncn2)c(=O)n2c1C(=O)NC21CCCCC1 ; criterion: inhibition no lower than 60%. Met?
y

---

Recorded inhibition by entry
Molecular target: MAP kinase-interacting serine/threonine-protein kinase 1 (Homo sapiens)
Assay: Inhibition of MNK1 (unknown origin) at 100 nM incubated for 60 mins by HTRF assay
Express it in %; write the number only.

Cc1cc(Nc2ncccn2)c(=O)n2c1C(=O)NC21CCCCC1	22.4

Entry Cc1cc(Nc2cccnc2)c(=O)n2c1C(=O)NC21CCCCC1 : reported inhibition = ?
20.2

Entry Cc1cc(Nc2cc(N)ncn2)c(=O)n2c1C(=O)NC21CCCCC1 [TOMIVOSERTIB] : reported inhibition = ?
87.8

Entry Cc1cc(Nc2cc(N3CCOCC3)ncn2)c(=O)n2c1C(=O)NC21CCCCC1 : reported inhibition = ?
21.4

Entry Cc1cccnc1Nc1cc(C)c2n(c1=O)C1(CCCCC1)NC2=O : reported inhibition = ?
17.8

---

Recorded log10 IC50 by entry
Biological target: MAP kinase-interacting serine/threonine-protein kinase 2 (Homo sapiens, UniProt Q9HBH9)
Experiment: Inhibition of recombinant human N-terminal GST-tagged MNK2 (1 to 465 residues) expressed in baculovirus expression system using TATKSGSTTKNR as substrate preincubated for 10 mins followed by ATP addition and measured after 40 mins by luminescence based assay
Transform log10 | Measure IC50 | Unit µM

The cases that follow already have their log10 IC50 on record.
Cc1cc(Nc2cc(N3CCOCC3)ncn2)c(=O)n2c1C(=O)NC21CCCCC1	-0.34
Cc1cc(Nc2cc(N3CCC(N)CC3)ncn2)c(=O)n2c1C(=O)NC21CCCCC1	-1.09
Cc1cc(Nc2cc(N3CCN(CCCN(C)C)CC3)ncn2)c(=O)n2c1C(=O)NC21CCCCC1	-2.21
Cc1cc(Nc2ccncn2)c(=O)n2c1C(=O)NC21CCCCC1	-2.08

Entry CC(=O)N1CCN(c2cc(Nc3cc(C)c4n(c3=O)C3(CCCCC3)NC4=O)ncn2)CC1 : reported log10 IC50 = ?
-1.20

---

Target: MAP kinase-interacting serine/threonine-protein kinase 1 (Homo sapiens, UniProt Q9BUB5)
Assay: Inhibition of MNK1 (unknown origin) at 100 nM incubated for 60 mins by HTRF assay
MEASURED PARAMETER: inhibition
Answer with the number, then the unit.

The cases that follow already have their inhibition on record.
Cc1cc(Nc2ccncn2)c(=O)n2c1C(=O)NC21CCCCC1	82.2%
Cc1cc(Nc2cc(NC3CCNCC3)ncn2)c(=O)n2c1C(=O)NC21CCCCC1	66.4%
Cc1cc(Nc2cn(C)nc2C(F)F)c(=O)n2c1C(=O)NC21CCCCC1	25.4%
CC(=O)N1CCN(c2cc(Nc3cc(C)c4n(c3=O)C3(CCCCC3)NC4=O)ncn2)CC1	73.3%

Attention now turns to another entry.
Entry Cc1cc(Nc2cc(N)ccn2)c(=O)n2c1C(=O)NC21CCCCC1 : reported inhibition = ?
43.4%

---

Target: MAP kinase-interacting serine/threonine-protein kinase 2 (Homo sapiens, UniProt Q9HBH9)
Assay: Inhibition of MNK2 (unknown origin) at 100 nM incubated for 60 mins by HTRF assay
MEASURED PARAMETER: inhibition (%)
Express it in %; write the number only.

The cases that follow already have their inhibition on record.
Cc1cc(Nc2ccnnc2)c(=O)n2c1C(=O)NC21CCCCC1	70.3
Cc1cc(Nc2cc(N3CCC(N)CC3)ncn2)c(=O)n2c1C(=O)NC21CCCCC1	64.3
Cc1cc(Nc2ccnc(N)c2)c(=O)n2c1C(=O)NC21CCCCC1	70.5

Attention now turns to another entry.
Entry Cc1cc(Nc2cncc(N)n2)c(=O)n2c1C(=O)NC21CCCCC1 : reported inhibition = ?
33.2
